system under test: rat NMUR2 (Rattus norvegicus, UniProt Q9ESQ4)
Sequence (Q9ESQ4 whole entry): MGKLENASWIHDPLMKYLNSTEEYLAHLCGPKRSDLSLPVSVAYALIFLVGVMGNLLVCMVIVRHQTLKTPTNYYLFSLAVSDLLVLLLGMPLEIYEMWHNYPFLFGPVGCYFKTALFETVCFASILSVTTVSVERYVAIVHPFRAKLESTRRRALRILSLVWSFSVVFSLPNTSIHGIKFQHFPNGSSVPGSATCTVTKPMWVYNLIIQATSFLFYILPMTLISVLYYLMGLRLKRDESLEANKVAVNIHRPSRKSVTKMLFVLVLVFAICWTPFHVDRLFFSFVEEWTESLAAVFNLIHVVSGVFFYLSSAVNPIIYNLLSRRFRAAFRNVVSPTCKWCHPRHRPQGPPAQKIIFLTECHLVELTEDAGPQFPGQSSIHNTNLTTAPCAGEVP
test method notes: 125I-hNMU-25 binding assay, rat R2
Parameters: expressed in transfected cells; host or cells: HEK-293 FLP-In cells (pcDNA5)
study conditions: binding
measure: IC50 (nM)

substance="H-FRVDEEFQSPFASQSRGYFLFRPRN-NH2 [hNMU-25, reference compound]" unit_spec=nM endpoint_value=0.6

###

% Activity: recorded values
system under test: UniProt:Q9HB89
Sequence (Q9HB89 whole entry): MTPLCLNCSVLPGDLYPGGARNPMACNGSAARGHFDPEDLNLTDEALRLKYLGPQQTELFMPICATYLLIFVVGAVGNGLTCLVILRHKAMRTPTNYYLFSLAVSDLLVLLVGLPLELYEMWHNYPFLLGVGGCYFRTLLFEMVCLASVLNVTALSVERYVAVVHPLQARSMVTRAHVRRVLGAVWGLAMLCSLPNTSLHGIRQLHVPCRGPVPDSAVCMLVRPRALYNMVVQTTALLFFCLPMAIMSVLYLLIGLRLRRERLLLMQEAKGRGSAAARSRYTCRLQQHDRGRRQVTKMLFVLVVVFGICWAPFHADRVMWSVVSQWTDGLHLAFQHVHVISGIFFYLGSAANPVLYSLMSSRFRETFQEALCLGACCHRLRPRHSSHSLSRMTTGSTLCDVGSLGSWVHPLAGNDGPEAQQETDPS
test method notes: In vitro functional assay, HEK-hR1 cells
Type: cell-based
Parameters: expressed in transfected cells; host or cells: FLP-In CHO or HEK-293 FLP-In cells (pcDNA5); HEK-293/aeq17 lines (pIRES-puro) were also made
study conditions: Table 9, HEK-hR1, functional
Non-standard residues stand in square brackets, D forms with d. Residues, ends and D or L forms follow the SMILES beside them. hArg = N=C(N)NCCCC[C@H](N)C(=O)O; dNle = CCCC[C@@H](N)C(=O)O
measure: % Activity (%)

molecule="CC(C)C[C@H](NC(=O)[C@H](Cc1c[nH]c2ccccc12)NC(=O)[C@@H](N)Cc1ccccc1)C(=O)N[C@@H](Cc1ccccc1)C(=O)N[C@@H](CCCNC(=N)N)C(=O)N1CCC[C@H]1C(=O)N[C@@H](CCCCNC(=N)N)C(=O)N[C@@H](CC(N)=O)C(N)=O [Agonist I, FWLFRP-(Harg)-N-CONH2] (H-FWLFRP[hArg]N-NH2)" system_under_test=UniProt:Q9HB89 unit_spec=% endpoint_value=7
molecule="CC(C)C[C@H](NC(=O)[C@H](Cc1c[nH]c2ccccc12)NC(=O)[C@@H](N)Cc1ccccc1)C(=O)N[C@@H](Cc1ccccc1)C(=O)N[C@@H](CCCNC(=N)N)C(=O)N[C@@H](C)C(=O)N[C@@H](CCCCNC(=N)N)C(=O)N[C@@H](CC(N)=O)C(N)=O [Agonist J, FWLFRA-(Harg)-N-CONH2] (H-FWLFRA[hArg]N-NH2)" system_under_test=UniProt:Q9HB89 unit_spec=% endpoint_value=0
molecule="CCCC[C@@H](NC(=O)[C@H](CCCNC(=N)N)NC(=O)[C@H](C)NC(=O)[C@H](CCCNC(=N)N)NC(=O)[C@H](Cc1ccccc1)NC(=O)[C@H](CC(C)C)NC(=O)[C@H](Cc1ccccc1)NC(=O)[C@@H](N)Cc1c[nH]c2ccccc12)C(N)=O [Agonist K, WFLFRAR-(D-Nle)-CONH2] (H-WFLFRAR[dNle]-NH2)" system_under_test=UniProt:Q9HB89 unit_spec=% endpoint_value=61
molecule="CC(C)C[C@H](NC(=O)[C@H](Cc1ccccc1)NC(=O)[C@@H](N)Cc1ccc(O)cc1)C(=O)N[C@@H](Cc1ccccc1)C(=O)N[C@@H](CCCNC(=N)N)C(=O)N1CCC[C@H]1C(=O)N[C@@H](CCCNC(=N)N)C(=O)N[C@@H](CC(N)=O)C(N)=O [NMU-8, reference compound]" system_under_test=UniProt:Q9HB89 unit_spec=% endpoint_value=100

src = patent US20100075907A1
